tested on: E. coli K88; assay: microbe, parasite or virus in culture; format: cell-based; details: supernatant treated with trypsin 50 μg/mL, 37 °C, 3 h, pH 6.8; agar diffusion, 37 °C 24 h; dash = no zone
Where a SMILES comes first, the peptide text is derived from it.
Measured Diameters of the inhibition zones, Trypsin-Treated Group, K88, listed per entry for reference.
Note: unit mm is implicit; provide only the numeric part.

[[record]]
compound = "CSCC[C@H](NC=O)C(=O)N[C@H](C(=O)N[C@H](C(=O)NCC(=O)N[C@@H](CC(N)=O)C(=O)N[C@@H](C)C(=O)N[C@@H](CC(=O)O)C(=O)NP(=O)(OCCCN)OC[C@H]1O[C@@H](n2cnc3c(N)ncnc32)[C@H](O)[C@@H]1O)[C@@H](C)O)[C@@H](C)O (stereo partly shown) [R2T] (HELM PEPTIDE1{[O=C[*:2]].M.T.T.G.N.A.[NCCCOP(=O)(NC(=O)[C@H](CC(=O)O)N[*:1])OC[C@H]1O[C@@H](n2cnc3c(N)ncnc32)[C@H](O)[C@@H]1O]}$$$$V2.0)"
unit_spec = "mm"
result_number = 11.68

[[record]]
compound = "CSCC[C@H](NC=O)C(=O)N[C@@H](C)C(=O)N[C@H](C(=O)NCC(=O)N[C@@H](CC(N)=O)C(=O)N[C@@H](C)C(=O)N[C@@H](CC(=O)O)C(=O)NP(=O)(OCCCN)OC[C@H]1O[C@@H](n2cnc3c(N)ncnc32)[C@H](O)[C@@H]1O)[C@@H](C)O (stereo partly shown) [R2A] (HELM PEPTIDE1{[O=C[*:2]].M.A.T.G.N.A.[NCCCOP(=O)(NC(=O)[C@H](CC(=O)O)N[*:1])OC[C@H]1O[C@@H](n2cnc3c(N)ncnc32)[C@H](O)[C@@H]1O]}$$$$V2.0)"
unit_spec = "mm"
result_number = 11.96

[[record]]
compound = "CSCC[C@H](NC=O)C(=O)N[C@@H](CCC(N)=O)C(=O)N[C@H](C(=O)NCC(=O)N[C@@H](CC(N)=O)C(=O)N[C@@H](C)C(=O)N[C@@H](CC(=O)O)C(=O)NP(=O)(OCCCN)OC[C@H]1O[C@@H](n2cnc3c(N)ncnc32)[C@H](O)[C@@H]1O)[C@@H](C)O (stereo partly shown) [R2Q] (HELM PEPTIDE1{[O=C[*:2]].M.Q.T.G.N.A.[NCCCOP(=O)(NC(=O)[C@H](CC(=O)O)N[*:1])OC[C@H]1O[C@@H](n2cnc3c(N)ncnc32)[C@H](O)[C@@H]1O]}$$$$V2.0)"
unit_spec = "mm"
result_number = 14.56


Now look at this entry.
(Q) So what's the measured Diameters of the inhibition zones, Trypsin-Treated Group, K88 for this one? O=C(N[C@H](CO)[C@H](O)c1ccc([N+](=O)[O-])cc1)C(Cl)Cl [Chloramphenicol, reference compound]
(A) 22.79

====

system: chymotrypsin; assay: Remaining amount by RP-HPLC after chymotrypsin treatment; format: in vitro ADME; settings: chymotrypsin (isolated protease); chymotrypsin treated for 3 h; read-out RP-HPLC; Table S2
Where a SMILES comes first, the peptide text is derived from it.
Recorded measurements of remaining at 3 h, one per entry
State the answer as a number, implicitly in %.

[[record]]
compound = "CSCC[C@H](NC=O)C(=O)N[C@@H](Cc1c[nH]c2ccccc12)C(=O)N[C@H](C(=O)NCC(=O)N[C@@H](CC(N)=O)C(=O)N[C@@H](C)C(=O)N[C@@H](CC(=O)O)C(=O)NP(=O)(OCCCN)OC[C@H]1O[C@@H](n2cnc3c(N)ncnc32)[C@H](O)[C@@H]1O)[C@@H](C)O (stereo partly drawn) [R2W] (HELM PEPTIDE1{[O=C[*:2]].M.W.T.G.N.A.[NCCCOP(=O)(NC(=O)[C@H](CC(=O)O)N[*:1])OC[C@H]1O[C@@H](n2cnc3c(N)ncnc32)[C@H](O)[C@@H]1O]}$$$$V2.0)"
assay_target = "chymotrypsin"
readout_label = "remaining at 3 h"
result_number = 41.3


(Q) Return reported remaining at 3 h; argument: CSCC[C@H](NC=O)C(=O)N[C@@H](CS)C(=O)N[C@H](C(=O)NCC(=O)N[C@@H](CC(N)=O)C(=O)N[C@@H](C)C(=O)N[C@@H](CC(=O)O)C(=O)NP(=O)(OCCCN)OC[C@H]1O[C@@H](n2cnc3c(N)ncnc32)[C@H](O)[C@@H]1O)[C@@H](C)O (stereo partly drawn) [R2C] (HELM PEPTIDE1{[O=C[*:2]].M.C.T.G.N.A.[NCCCOP(=O)(NC(=O)[C@H](CC(=O)O)N[*:1])OC[C@H]1O[C@@H](n2cnc3c(N)ncnc32)[C@H](O)[C@@H]1O]}$$$$V2.0)
(A) 40.9

(Q) Which remaining at 3 h is listed for CSCC[C@H](NC=O)C(=O)N[C@@H](CCC(=O)O)C(=O)N[C@H](C(=O)NCC(=O)N[C@@H](CC(N)=O)C(=O)N[C@@H](C)C(=O)N[C@@H](CC(=O)O)C(=O)NP(=O)(OCCCN)OC[C@H]1O[C@@H](n2cnc3c(N)ncnc32)[C@H](O)[C@@H]1O)[C@@H](C)O (stereo partly drawn) [R2E] (HELM PEPTIDE1{[O=C[*:2]].M.E.T.G.N.A.[NCCCOP(=O)(NC(=O)[C@H](CC(=O)O)N[*:1])OC[C@H]1O[C@@H](n2cnc3c(N)ncnc32)[C@H](O)[C@@H]1O]}$$$$V2.0) ?
(A) 38.4
